target: Ionotropic glutamate receptor NMDA 1/2D (Rattus norvegicus, UniProt P35439+Q62645); test: Positive allosteric modulation of recombinant rat GluN1alpha/GluN2D receptor expressed in HEK293 cells assessed as potentiation of glutamate-induced current response at holding potential -60mV by whole cell voltage clamp method
Sequence (Q62645 whole entry, other chains not shown): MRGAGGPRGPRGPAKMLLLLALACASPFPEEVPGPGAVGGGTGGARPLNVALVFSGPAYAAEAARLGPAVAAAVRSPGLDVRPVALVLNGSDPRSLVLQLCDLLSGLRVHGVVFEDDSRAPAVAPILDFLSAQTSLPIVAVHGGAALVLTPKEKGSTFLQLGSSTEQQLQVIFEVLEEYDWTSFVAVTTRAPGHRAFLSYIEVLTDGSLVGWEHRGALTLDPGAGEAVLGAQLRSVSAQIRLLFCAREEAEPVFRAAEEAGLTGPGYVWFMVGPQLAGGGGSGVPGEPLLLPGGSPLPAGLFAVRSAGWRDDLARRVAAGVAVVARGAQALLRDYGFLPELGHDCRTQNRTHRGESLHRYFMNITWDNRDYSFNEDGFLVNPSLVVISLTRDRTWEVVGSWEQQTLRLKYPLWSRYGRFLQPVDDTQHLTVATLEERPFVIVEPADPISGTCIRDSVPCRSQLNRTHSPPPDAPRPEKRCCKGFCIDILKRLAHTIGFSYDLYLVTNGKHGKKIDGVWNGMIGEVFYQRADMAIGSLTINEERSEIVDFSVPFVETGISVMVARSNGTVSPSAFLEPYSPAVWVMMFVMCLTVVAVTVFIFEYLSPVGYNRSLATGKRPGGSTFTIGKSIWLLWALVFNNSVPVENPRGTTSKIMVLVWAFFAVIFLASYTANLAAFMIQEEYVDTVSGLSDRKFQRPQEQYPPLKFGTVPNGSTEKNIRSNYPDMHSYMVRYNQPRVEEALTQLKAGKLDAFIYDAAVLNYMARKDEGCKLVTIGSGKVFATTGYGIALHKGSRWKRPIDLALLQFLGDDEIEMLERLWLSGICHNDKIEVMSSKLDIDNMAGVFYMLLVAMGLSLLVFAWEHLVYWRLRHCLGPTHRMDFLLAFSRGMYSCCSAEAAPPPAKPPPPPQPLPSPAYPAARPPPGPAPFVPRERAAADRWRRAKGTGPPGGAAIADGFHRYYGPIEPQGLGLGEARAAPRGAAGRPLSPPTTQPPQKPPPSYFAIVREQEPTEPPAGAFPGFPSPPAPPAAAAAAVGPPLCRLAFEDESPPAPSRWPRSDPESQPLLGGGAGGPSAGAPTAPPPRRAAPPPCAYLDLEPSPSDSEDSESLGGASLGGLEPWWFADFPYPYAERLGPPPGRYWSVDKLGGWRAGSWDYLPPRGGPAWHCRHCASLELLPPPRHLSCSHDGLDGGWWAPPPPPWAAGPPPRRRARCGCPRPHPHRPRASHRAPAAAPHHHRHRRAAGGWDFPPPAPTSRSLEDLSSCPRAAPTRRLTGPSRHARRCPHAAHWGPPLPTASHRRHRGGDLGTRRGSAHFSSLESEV
measuredEndpoint: EC50 (µM)
Numbers only, in µM.

Value of measured EC50 for the entry CC(=O)[C@H]1CC[C@H]2[C@@H]3CC=C4C[C@@H](OC(=O)CCCCC(=O)O)CC[C@]4(C)[C@H]3CC[C@]12C : 13

====

target: Glutamate NMDA receptor; Grin1/Grin2b (Rattus norvegicus, UniProt P35439+Q00960); test: Positive allosteric modulation of recombinant rat GluN1alpha/GluN2B receptor expressed in HEK293 cells assessed as potentiation of glutamate-induced current response at holding potential -60mV by whole cell voltage clamp method
Our labelling divides records by EC50 into ranges: range 1: < 10 µM; range 2: ≥ 10 µM and < 30 µM; range 3: ≥ 30 µM

compound=CC(=O)[C@H]1CC[C@H]2[C@@H]3CC=C4C[C@@H](OC(=O)C(=O)O)CC[C@]4(C)[C@H]3CC[C@]12C labelvalue="range 3"

Q) # bin label for C[C@@]12CCC[C@H]1[C@@H]1CC=C3C[C@@H](OC(=O)CCCCCC(=O)O)CC[C@]3(C)[C@H]1CC2
A) range 1

Q) # bin label for C[C@]12CC[C@H](OC(=O)CCCCCCCC(=O)O)CC1=CC[C@@H]1[C@@H]2CC[C@]2(C)C(=O)CC[C@@H]12
A) range 3

Q) # bin label for C[C@]12CC[C@H](OC(=O)CCCCCCCCC(=O)O)CC1=CC[C@@H]1[C@@H]2CC[C@]2(C)C(=O)CC[C@@H]12
A) range 2

Q) # bin label for CC[C@H]1CC[C@H]2[C@@H]3CC=C4C[C@@H](OC(=O)CCCCC(=O)O)CC[C@]4(C)[C@H]3CC[C@]12C
A) range 2

Q) # bin label for CC(=O)[C@H]1CC[C@H]2[C@@H]3CC=C4C[C@@H](OC(=O)CCC(=O)O)CC[C@]4(C)[C@H]3CC[C@]12C [PREGNENOLONE SUCCINATE]
A) range 2

====

target: Glutamate NMDA receptor; Grin1/Grin2c (Rattus norvegicus, UniProt P35439+Q00961); test: Positive allosteric modulation of recombinant rat GluN1alpha/GluN2C receptor expressed in HEK293 cells assessed as potentiation of glutamate-induced current response at holding potential -60mV by whole cell voltage clamp method
Sequence (Q00961 whole entry, other chains not shown): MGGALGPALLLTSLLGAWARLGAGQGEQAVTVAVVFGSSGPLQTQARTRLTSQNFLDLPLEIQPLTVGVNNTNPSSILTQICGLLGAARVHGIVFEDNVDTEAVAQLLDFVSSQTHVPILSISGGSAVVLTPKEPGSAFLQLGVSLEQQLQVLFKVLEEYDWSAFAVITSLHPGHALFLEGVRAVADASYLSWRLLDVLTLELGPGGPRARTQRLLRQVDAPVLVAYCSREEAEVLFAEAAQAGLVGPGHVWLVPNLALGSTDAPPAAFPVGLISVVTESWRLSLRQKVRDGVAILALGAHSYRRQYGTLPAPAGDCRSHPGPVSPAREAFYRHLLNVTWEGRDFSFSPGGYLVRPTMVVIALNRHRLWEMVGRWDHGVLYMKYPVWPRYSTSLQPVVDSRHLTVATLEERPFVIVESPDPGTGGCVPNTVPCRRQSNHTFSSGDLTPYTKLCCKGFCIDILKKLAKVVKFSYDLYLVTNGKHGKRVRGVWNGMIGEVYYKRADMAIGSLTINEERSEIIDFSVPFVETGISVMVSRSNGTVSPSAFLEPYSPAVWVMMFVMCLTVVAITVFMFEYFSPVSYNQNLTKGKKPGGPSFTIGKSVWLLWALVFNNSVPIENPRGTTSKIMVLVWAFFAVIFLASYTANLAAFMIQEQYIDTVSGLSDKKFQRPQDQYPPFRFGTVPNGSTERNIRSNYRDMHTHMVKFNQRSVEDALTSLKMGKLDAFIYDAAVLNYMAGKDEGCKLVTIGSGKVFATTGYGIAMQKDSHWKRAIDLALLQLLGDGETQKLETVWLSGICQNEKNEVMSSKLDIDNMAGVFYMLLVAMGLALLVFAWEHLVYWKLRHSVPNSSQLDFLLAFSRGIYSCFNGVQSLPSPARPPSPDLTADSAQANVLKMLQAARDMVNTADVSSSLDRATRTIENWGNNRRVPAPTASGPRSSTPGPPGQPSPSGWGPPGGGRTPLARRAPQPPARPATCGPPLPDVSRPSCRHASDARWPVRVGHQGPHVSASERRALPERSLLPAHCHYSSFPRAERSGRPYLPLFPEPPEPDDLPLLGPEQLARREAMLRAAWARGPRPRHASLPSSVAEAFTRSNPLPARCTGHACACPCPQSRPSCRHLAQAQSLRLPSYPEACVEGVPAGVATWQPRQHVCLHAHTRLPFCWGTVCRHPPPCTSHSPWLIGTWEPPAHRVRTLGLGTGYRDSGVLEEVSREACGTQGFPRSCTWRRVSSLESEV
measuredEndpoint: EC50 (µM)
Numbers only, in µM.

Here CC(=O)[C@H]1CC[C@H]2[C@@H]3CC=C4C[C@@H](OC(=O)CCCCC(=O)O)CC[C@]4(C)[C@H]3CC[C@]12C was tested on Glutamate NMDA receptor; Grin1/Grin2c (Rattus norvegicus, UniProt P35439+Q00961), and its EC50 came to 10.4

====

Provide the reported Emax of each item.
target: Glutamate NMDA receptor; Grin1/Grin2b (Rattus norvegicus) (UniProt P35439+Q00960); assay: Positive allosteric modulation of recombinant rat GluN1alpha/GluN2B receptor expressed in HEK293 cells assessed as potentiation of glutamate-induced current response at 0.3 to 300 uM at holding potential -60mV by whole cell voltage clamp method relative to control; type: cell-based
Numbers only, in %.

Below, each entry is followed by its recorded Emax result.
recordsmiles=CC[C@H]1CC[C@H]2[C@@H]3CC=C4C[C@@H](OC(=O)CCCCCC(=O)O)CC[C@]4(C)[C@H]3CC[C@]12C testvalue=48
recordsmiles=C[C@@]12CCC[C@H]1[C@@H]1CC=C3C[C@@H](OC(=O)CCC(=O)O)CC[C@]3(C)[C@H]1CC2 testvalue=452
recordsmiles=CC[C@H]1CC[C@H]2[C@@H]3CC=C4C[C@@H](OC(=O)CCCCC(=O)O)CC[C@]4(C)[C@H]3CC[C@]12C testvalue=60

Switching to the query record.
Value of measured Emax for the entry C[C@@]12CCC[C@H]1[C@@H]1CC=C3C[C@@H](OC(=O)CCCCC(=O)O)CC[C@]3(C)[C@H]1CC2 : 191

====

target: Glutamate NMDA receptor; Grin1/Grin2a (Rattus norvegicus, UniProt P35439+Q00959); assay: Positive allosteric modulation of recombinant rat GluN1alpha/GluN2A receptor expressed in HEK293 cells assessed as potentiation of glutamate-induced current response at holding potential -60mV by whole cell voltage clamp method
Sequence (Q00959 whole entry, other chains not shown): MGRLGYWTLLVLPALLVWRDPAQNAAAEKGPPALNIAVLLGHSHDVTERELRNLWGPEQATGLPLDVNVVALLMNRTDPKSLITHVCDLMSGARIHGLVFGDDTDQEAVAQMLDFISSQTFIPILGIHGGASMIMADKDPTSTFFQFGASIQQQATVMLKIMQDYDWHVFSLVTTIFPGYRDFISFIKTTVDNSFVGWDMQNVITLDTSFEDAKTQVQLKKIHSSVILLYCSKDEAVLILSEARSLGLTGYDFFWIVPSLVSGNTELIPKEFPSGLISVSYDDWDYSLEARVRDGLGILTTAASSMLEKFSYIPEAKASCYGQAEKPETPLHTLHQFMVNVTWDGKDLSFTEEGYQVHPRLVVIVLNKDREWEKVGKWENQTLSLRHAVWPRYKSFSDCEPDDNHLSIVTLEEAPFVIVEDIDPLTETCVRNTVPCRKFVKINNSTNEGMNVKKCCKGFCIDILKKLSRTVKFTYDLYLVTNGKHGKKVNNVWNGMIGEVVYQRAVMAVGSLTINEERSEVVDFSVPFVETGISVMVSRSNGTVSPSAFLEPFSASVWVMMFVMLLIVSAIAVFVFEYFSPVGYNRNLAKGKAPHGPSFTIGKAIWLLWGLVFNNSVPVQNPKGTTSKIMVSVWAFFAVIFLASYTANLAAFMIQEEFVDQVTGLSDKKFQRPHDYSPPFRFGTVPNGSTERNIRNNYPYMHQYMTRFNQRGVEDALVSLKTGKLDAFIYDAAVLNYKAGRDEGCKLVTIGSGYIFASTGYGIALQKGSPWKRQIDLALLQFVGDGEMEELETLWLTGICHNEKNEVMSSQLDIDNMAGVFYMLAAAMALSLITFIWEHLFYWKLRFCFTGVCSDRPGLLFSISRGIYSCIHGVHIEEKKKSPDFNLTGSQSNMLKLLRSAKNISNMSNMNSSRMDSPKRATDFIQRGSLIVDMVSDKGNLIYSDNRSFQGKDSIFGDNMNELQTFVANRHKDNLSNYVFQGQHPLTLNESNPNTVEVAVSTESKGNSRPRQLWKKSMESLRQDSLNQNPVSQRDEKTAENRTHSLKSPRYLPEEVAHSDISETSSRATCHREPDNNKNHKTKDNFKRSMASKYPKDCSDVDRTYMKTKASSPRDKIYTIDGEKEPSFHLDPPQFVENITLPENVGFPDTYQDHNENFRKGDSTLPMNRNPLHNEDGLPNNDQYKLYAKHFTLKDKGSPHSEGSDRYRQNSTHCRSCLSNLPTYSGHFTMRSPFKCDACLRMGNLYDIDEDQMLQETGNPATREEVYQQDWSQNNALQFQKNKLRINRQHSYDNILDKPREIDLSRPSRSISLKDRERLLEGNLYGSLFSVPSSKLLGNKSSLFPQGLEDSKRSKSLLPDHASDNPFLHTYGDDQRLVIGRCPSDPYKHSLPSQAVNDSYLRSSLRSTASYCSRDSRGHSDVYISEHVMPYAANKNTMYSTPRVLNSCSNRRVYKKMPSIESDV
measuredEndpoint: EC50 (µM)
Give bare numbers, in µM.

Here CC(=O)[C@H]1CC[C@H]2[C@@H]3CC=C4C[C@@H](OC(=O)CCCCC(=O)O)CC[C@]4(C)[C@H]3CC[C@]12C was tested on Glutamate NMDA receptor; Grin1/Grin2a (Rattus norvegicus, UniProt P35439+Q00959), and its EC50 came to 8.9

====

molecular target: Glutamate NMDA receptor; Grin1/Grin2b (Rattus norvegicus) (UniProt P35439+Q00960); experiment: Positive allosteric modulation of recombinant rat GluN1alpha/GluN2B receptor expressed in HEK293 cells assessed as potentiation of glutamate-induced current response at 1 to 100 uM at holding potential -60mV by whole cell voltage clamp method relative to control; type: cell-based
measuredEndpoint: Emax (%)
Give bare numbers, in %.

Below, each entry is followed by its recorded Emax result.
compound="CC(=O)[C@H]1CC[C@H]2[C@@H]3CC=C4C[C@@H](OC(=O)CCC(=O)O)CC[C@]4(C)[C@H]3CC[C@]12C [PREGNENOLONE SUCCINATE]" measuredendpoint=Emax testvalue=177
compound=C[C@]12CC[C@H](OC(=O)CCCCCCCCC(=O)O)CC1=CC[C@@H]1[C@@H]2CC[C@]2(C)C(=O)CC[C@@H]12 measuredendpoint=Emax testvalue=165
compound=CC(=O)[C@H]1CC[C@H]2[C@@H]3CC=C4C[C@@H](OC(=O)CCCCCCC(=O)O)CC[C@]4(C)[C@H]3CC[C@]12C measuredendpoint=Emax testvalue=156

For each of the compounds below, note its Emax.
1. CC(=O)[C@H]1CC[C@H]2[C@@H]3CC=C4C[C@@H](OS(=O)(=O)O)CC[C@]4(C)[C@H]3CC[C@]12C.c1ccncc1
2. C[C@]12CC[C@H](OC(=O)CCCCCCC(=O)O)CC1=CC[C@@H]1[C@@H]2CC[C@]2(C)C(=O)CC[C@@H]12
3. CC(=O)[C@H]1CC[C@H]2[C@@H]3CC=C4C[C@@H](OC(=O)C(=O)O)CC[C@]4(C)[C@H]3CC[C@]12C

A)
1: 116; 2: 189; 3: 93

For each of the compounds below, note its Emax.
1. CC(=O)[C@H]1CC[C@H]2[C@@H]3CC=C4C[C@@H](OC(=O)CC(=O)O)CC[C@]4(C)[C@H]3CC[C@]12C
2. C[C@]12CC[C@H](OC(=O)CCCCCCCC(=O)O)CC1=CC[C@@H]1[C@@H]2CC[C@]2(C)C(=O)CC[C@@H]12
3. C[C@]12CC[C@H](OC(=O)CCCCCC(=O)O)CC1=CC[C@@H]1[C@@H]2CC[C@]2(C)C(=O)CC[C@@H]12
4. CC(=O)[C@H]1CC[C@H]2[C@@H]3CC=C4C[C@@H](OC(=O)CCCCCC(=O)O)CC[C@]4(C)[C@H]3CC[C@]12C
5. CC(=O)[C@H]1CC[C@H]2[C@@H]3CC=C4C[C@@H](OC(=O)CCCCC(=O)O)CC[C@]4(C)[C@H]3CC[C@]12C

A)
108
226
187
191
151

Value of measured Emax for the entry CC(=O)[C@H]1CC[C@H]2[C@@H]3CC=C4C[C@@H](OC(=O)CCCC(=O)O)CC[C@]4(C)[C@H]3CC[C@]12C : 183

====

Provide the reported pEC50 of each item.
molecular target: Glutamate NMDA receptor; Grin1/Grin2b (Rattus norvegicus, UniProt P35439+Q00960); experiment: Positive allosteric modulation of recombinant rat GluN1alpha/GluN2B receptor expressed in HEK293 cells assessed as potentiation of glutamate-induced current response at holding potential -60mV by whole cell voltage clamp method
Give bare numbers, as −log10 of the molar value.

recordsmiles=CC[C@H]1CC[C@H]2[C@@H]3CC=C4C[C@@H](OC(=O)CCCCCC(=O)O)CC[C@]4(C)[C@H]3CC[C@]12C targetorsystem="Glutamate NMDA receptor; Grin1/Grin2b (Rattus norvegicus, UniProt P35439+Q00960)" measuredendpoint=pEC50 testvalue=4.58
recordsmiles=C[C@@]12CCC[C@H]1[C@@H]1CC=C3C[C@@H](OC(=O)CCCC(=O)O)CC[C@]3(C)[C@H]1CC2 targetorsystem="Glutamate NMDA receptor; Grin1/Grin2b (Rattus norvegicus, UniProt P35439+Q00960)" measuredendpoint=pEC50 testvalue=5.28
recordsmiles=CC(=O)[C@H]1CC[C@H]2[C@@H]3CC=C4C[C@@H](OC(=O)CCCCCC(=O)O)CC[C@]4(C)[C@H]3CC[C@]12C targetorsystem="Glutamate NMDA receptor; Grin1/Grin2b (Rattus norvegicus, UniProt P35439+Q00960)" measuredendpoint=pEC50 testvalue=4.74

For each of the compounds below, note its pEC50.
1. CC[C@H]1CC[C@H]2[C@@H]3CC=C4C[C@@H](OC(=O)CCCC(=O)O)CC[C@]4(C)[C@H]3CC[C@]12C
2. C[C@]12CC[C@H](OC(=O)CCCCC(=O)O)CC1=CC[C@@H]1[C@@H]2CC[C@]2(C)C(=O)CC[C@@H]12
3. C[C@@]12CCC[C@H]1[C@@H]1CC=C3C[C@@H](OC(=O)CCC(=O)O)CC[C@]3(C)[C@H]1CC2
4. C[C@]12CC[C@H](OC(=O)CCCCCC(=O)O)CC1=CC[C@@H]1[C@@H]2CC[C@]2(C)C(=O)CC[C@@H]12
5. C[C@]12CC[C@H](OC(=O)CCCCCCC(=O)O)CC1=CC[C@@H]1[C@@H]2CC[C@]2(C)C(=O)CC[C@@H]12
6. C[C@@]12CCC[C@H]1[C@@H]1CC=C3C[C@@H](OC(=O)CC(=O)O)CC[C@]3(C)[C@H]1CC2
7. CC(=O)[C@H]1CC[C@H]2[C@@H]3CC=C4C[C@@H](OC(=O)CCCCCCC(=O)O)CC[C@]4(C)[C@H]3CC[C@]12C

A)
5.00
3.96
5.13
4.08
4.31
5.33
4.71
